// Fyn (Homo sapiens) IC50 records

For orientation, consider the following solved cases.
COc1cc(Nc2ncnc(N(C)c3cccc4ccccc34)n2)cc(OC)c1OC 0.958 to 5.75 µM
COc1cc(Nc2ncnc(N3CCc4cc([N+](=O)[O-])ccc43)n2)cc(OC)c1OC > 10.6 µM

Exercise: // fetch Fyn (Homo sapiens) IC50 for COc1cc(Nc2ncnc(-n3c(NCc4ccc([N+](=O)[O-])cc4)nc4ccccc43)n2)cc(OC)c1OC
Key: 4.54 to 6.62 µM

---

Known pIC50 of a selection of compounds
# test target: AKT (Homo sapiens)
# Construct: Kinases are expressed as either kinase domains or full length constructs; made in house
# Sequence (Q9Y243 whole entry, the tested form may be a part): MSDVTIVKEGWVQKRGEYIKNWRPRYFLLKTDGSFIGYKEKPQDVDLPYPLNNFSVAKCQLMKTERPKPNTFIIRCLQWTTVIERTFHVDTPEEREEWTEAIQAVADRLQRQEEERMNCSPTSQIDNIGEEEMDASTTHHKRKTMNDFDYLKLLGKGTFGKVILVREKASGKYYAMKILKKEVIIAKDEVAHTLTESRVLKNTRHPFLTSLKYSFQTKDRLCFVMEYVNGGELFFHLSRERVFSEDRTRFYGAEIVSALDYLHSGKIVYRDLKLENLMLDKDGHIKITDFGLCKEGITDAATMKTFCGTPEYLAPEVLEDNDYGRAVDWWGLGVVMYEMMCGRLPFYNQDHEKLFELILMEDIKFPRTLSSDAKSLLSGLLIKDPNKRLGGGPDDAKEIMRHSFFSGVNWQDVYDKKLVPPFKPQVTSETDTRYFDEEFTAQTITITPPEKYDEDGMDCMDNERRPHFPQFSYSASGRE
# run description: Kinase inhibition assay (33P transfer), AKT
# Format: biochemical
# experimental parameters: Table 2, kinase inhibition class; read-out: AKT3-1
# Text: The inhibitor compounds described herein are screened in the following manner. […] Kinases are expressed as either kinase domains or full length constructs fused to glutathione S-transferase (GST) or polyHistidine tagged fusion proteins in either E. colior Baculovirus-High Five expression systems. […]
pIC50: −log10 of the molar value.

For orientation, consider the following solved cases.
compound	pIC50
COc1cc(Nc2ncnc(Nc3ccc4c(cnn4C)c3)n2)cc(OC)c1OC [Compound 557]	< 4.96
COc1cc(Nc2ncnc(Nc3ccc(NS(=O)(=O)c4ccc([N+](=O)[O-])cc4)cc3)n2)cc(OC)c1OC [Compound 692]	< 5.09
CCOc1ccc(Nc2ncnc(Nc3ccc(OCc4ccccc4)cc3)n2)cc1OCC [Compound 170]	5.28 to 6.06
COc1cc(Nc2ncnc(-n3c(Cl)nc4ccccc43)n2)cc(OC)c1OC [Compound 378]	< 4.96

Exercise: Record request: pIC50 value, item COc1cc(Nc2ncnc(Nc3cc(-c4ccccc4)n[nH]3)n2)cc(OC)c1OC [Compound 102]
Key: < 4.97

Exercise: Now the compound COc1cc(Nc2ncnc(Nc3ncncn3)n2)cc(OC)c1OC [Compound 254]
Key: < 4.90

Exercise: Now the compound c1ccc(CCNc2ncnc(Nc3ccc4c(cnn4Cc4ccccc4)c3)n2)cc1 [Compound 734]
Key: < 4.97

Exercise: Now the compound O=c1[nH]c2ccccc2n1-c1ncnc(Nc2ccc(NS(=O)(=O)c3ccc([N+](=O)[O-])cc3)cc2)n1 [Compound 422]
Key: 5.32 to 6.10

Exercise: Now the compound COc1cc(Nc2ncnc(Nc3ccc(OCC(=O)Nc4ccccc4)cc3)n2)cc(OC)c1OC [Compound 623]
Key: < 5.05

---

# test target: PDGFRB (Homo sapiens, UniProt P09619)
# Construct: Kinases are expressed as either kinase domains or full length constructs; made in house
# Sequence (P09619 33-1106, species assumed): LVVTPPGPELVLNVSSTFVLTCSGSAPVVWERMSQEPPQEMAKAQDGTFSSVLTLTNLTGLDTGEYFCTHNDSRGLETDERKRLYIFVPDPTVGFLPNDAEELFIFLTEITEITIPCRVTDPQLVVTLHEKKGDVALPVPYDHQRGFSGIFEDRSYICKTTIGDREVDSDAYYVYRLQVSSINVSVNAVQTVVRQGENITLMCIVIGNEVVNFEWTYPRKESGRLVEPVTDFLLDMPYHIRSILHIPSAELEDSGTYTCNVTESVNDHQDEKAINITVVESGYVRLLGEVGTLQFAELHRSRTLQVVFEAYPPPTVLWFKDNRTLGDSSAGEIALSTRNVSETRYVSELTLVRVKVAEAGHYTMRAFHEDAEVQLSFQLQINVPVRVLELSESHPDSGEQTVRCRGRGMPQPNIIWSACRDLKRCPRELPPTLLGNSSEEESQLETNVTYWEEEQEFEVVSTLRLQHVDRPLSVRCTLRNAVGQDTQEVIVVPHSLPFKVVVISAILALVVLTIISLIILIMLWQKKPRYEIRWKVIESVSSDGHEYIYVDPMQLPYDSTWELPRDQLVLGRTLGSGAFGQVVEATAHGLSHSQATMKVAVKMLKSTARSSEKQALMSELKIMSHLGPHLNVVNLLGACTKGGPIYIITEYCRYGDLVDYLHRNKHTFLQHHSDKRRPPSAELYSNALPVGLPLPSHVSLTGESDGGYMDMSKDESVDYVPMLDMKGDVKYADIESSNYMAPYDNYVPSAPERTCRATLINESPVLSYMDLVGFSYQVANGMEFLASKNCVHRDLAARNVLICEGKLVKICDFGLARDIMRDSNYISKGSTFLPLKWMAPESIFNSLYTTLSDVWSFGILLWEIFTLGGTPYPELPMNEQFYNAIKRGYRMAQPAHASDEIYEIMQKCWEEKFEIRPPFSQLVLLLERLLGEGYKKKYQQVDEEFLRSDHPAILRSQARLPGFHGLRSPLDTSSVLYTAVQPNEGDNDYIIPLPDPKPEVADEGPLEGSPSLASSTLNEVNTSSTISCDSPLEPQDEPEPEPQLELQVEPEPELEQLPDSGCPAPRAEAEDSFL
# run description: Kinase inhibition assay (33P transfer), PDGFRB
# Format: biochemical
# experimental parameters: read-out: PDGFRB-1
pIC50: −log10 of the molar value.
Known pIC50 of a selection of molecules

For orientation, consider the following solved cases.
COc1cc(C)c(Nc2ncnc(Nc3cc(-c4ccccc4)n[nH]3)n2)cc1OC < 4.95
COc1cc(Nc2ncnc(NC(=O)NCc3ccccc3)n2)cc(OC)c1OC < 4.96
COCCOc1cc(Nc2ncnc(Nc3ccc(C)c(O)c3)n2)ccc1OC > 6.00

Exercise: Record request: pIC50 value, item COc1cc(Nc2ncnc(Nc3cccc(Br)c3)n2)cc(OC)c1OC
Key: < 4.98
